Some binders, each annotated with its measured cell binding.
Molecular target: T1, CD70 on cells (CHO-CD70, JVM-3, U266, Raji, THP-1, T cells) (human, UniProt P32970 1-193)
T1 construct: whole, on cells; also called cell-surface CD70
T1 sequence (looked up): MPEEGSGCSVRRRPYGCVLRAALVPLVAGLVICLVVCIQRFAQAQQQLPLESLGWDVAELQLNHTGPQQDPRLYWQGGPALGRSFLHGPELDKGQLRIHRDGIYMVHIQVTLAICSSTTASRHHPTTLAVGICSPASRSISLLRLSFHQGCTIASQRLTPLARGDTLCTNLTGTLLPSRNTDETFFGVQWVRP
Assay: 1.25 µg/mL scFv on JVM-3 cells
Measurement kind: cell binding

{"Binder": "57-TC7-VII-A03 (scFv, His-tagged) scFv: QVQLQQSGPGLVKASETLSLTCAVSGHSISSSNYWGWIRQPPGKGLEWIGSIYHSGTTYYNPSLKSRVTMSVDTSKNQFSLKLSSVTAADTAVYYCARHGSGDLGYLEYWGQGTLVTVSSGGSGGSGGSGGSSYELTQSPSVSVAPGKTARITCGGNNIGSKSVHWYQQKPGQAPVLVIYYDSDRPSGIPERFSGSNSGNTATLTISRVEAGDEADYYCQVWDSSSDHPVFGGGTKVTVL", "Recorded result": 1640}
{"Binder": "14-TC4-XIII-A01 (scFv, His-tagged) scFv: QVQLVQSGAEVKKPGASVKVSCKASGYTFTGYYMNWVRQAPGQGLEWMAWINPNTGDTNYAQKFQGRVTMTRDTSINTAYIELSRLTSDDTAVYYCARVGDYYDRSGYYRHDAFDIWGQGTMVTVSSGGSGGSGGSGGSSSELTQDPAVSVALGQTVRITCQGDSLRSYYASWYQQKPGQAPVLVIYGKNNRPSGIPDRFSGSSSGNTASLTITGAQAMDEADYYCQAWDSSTGVVFGGGTKVTVL", "Recorded result": 1290}
{"Binder": "40-TC7-VI-F11 (scFv, His-tagged) scFv: EVQLVESGGGVVQPGRSLRLSCAASGFTFSSYAMHWVRQAPGKGLEWVAVISYDGSNKYYADSVKGRFTISRDNSKNTLYLQMNSLRAEDTAVYYCARDGYGFDYWGQGTLVTVSSGGSGGSGGSGGSSYELTQSPSVSVAPGQTARITCGGNNIGSKSVHWYQQKPGQAPVLVVYDDSDRPSGIPERFSGSNSGNTATLTISRVEAGDEADYYCQVWDSSTPYVFGTGTKLTVL", "Recorded result": 4870}
{"Binder": "1-TC4-I-C10 (scFv, His-tagged; also called 1867) scFv: EVQLVQSGAEVKKPGESLKISCKGSGYSFTSYWIGWVRQMPGKGLEWMGIIYPGDSDTRYSPSFQGQVTISADKSISTAYLQWSSLKASDTAMYYCAISRTESYVMDVWGQGTTVTVSSGGSGGSGGSGGSQSALTQPRSVSGSPGQSVTISCTGTSSDVGGYNYVSWYQQHPGKAPKLMIYDVTNRPSGVPDRFSASKSDNTATLTVSGVQAEDEADYYCSSYAGSHELFGGGTKLTVL", "Recorded result": 73300}
{"Binder": "15-TC7-I-D07 (scFv, His-tagged) scFv: QVQLQQWGAGLLKPSETLSLTCAVYGGSFSGYYWSWIRQPPGKGLEWIGEINHSGSTNYNPSLKSRVTISVDTSKNQFSLKLSSVTAADTAVYYCARVSRSRGAFDIWGQGTMVTVSSGGSGGSGGSGGSQSALTQPASVSGSPGQSITISCTGTNSDVGAYNYVSWYQQHPGKAPKLMIYEVTNRPSGVSNRFSGSKSGNTASLTISGLQAEDEADYYCSSYTSSGTWVFGGGTKLTVL", "Recorded result": 50900}
{"Binder": "55-TC4-IX-G04 (scFv, His-tagged) scFv: QVQLLESGGGVVQPGRSLRLSCAASGFTFSSYAMHWVRQAPGKGLEWVAVISYDGSNKYYADSVKGRFTISRDNSKNTLYLQMNSLRAEDTAVYYCARGLGFGSGWYEYVDAFDIWGQGTMVTVSSGGSGGSGGSGGSQSVLTQPASVSGSPGQSITISCTGTSSDVGSYNLVSWYQQHPGKAPKLMIYEVSKRPSGVSNRFSGSKSGNTASLTISGLQAEDEADYYCSSYRSNNTPWVFGGGTKLTVL", "Recorded result": 3570}
{"Binder": "62-TC7-V-D08 (scFv, His-tagged) scFv: QVQLQQWGAGLLKPSETLSLTCAVYGGSFSGYYWSWIRQPPGKGLEWIGEINHSGSTNYNPSLKSRVTISVDTSKNQFSLKLSSVTAADTAVYYCARVARGKGAFDIWGQGTMVTVSSGGSGGSGGSGGSQSALTQPASVSGSPGQSITISCTGTSSDVGGYNYVSWYQQHPGKAPKLLIYEVSSRPSGVSNRFSGSKSGNTASLTISGLQAEDEADYYCNSYTNSGSWVFGGGTKVTVL", "Recorded result": 45200}
{"Binder": "4-TC4-I-G08 (scFv, His-tagged) scFv: QVQLVQSGGGVVQPGRSLRLSCAASGFTFSSYAMHWVRQAPGKGLEWVAVISYDGSNKYYADSVKGRFTISRDNAKNSLYLQMNSLRDEDTAVYYCARDESFDYGVDVWGKGTTVTVSSGGSGGSGGSGGSSSELTQDPAVSVALGQTVRITCQGDSLRSYYASWYQQKPGQAPVLVIYGKNNRPSGIPDRFSGSSSGNTASLTITGAQAEDEADYYCNSRDSSGNHLVVFGGGTKLTVL", "Recorded result": 34000}
{"Binder": "43-TC4-VII-C04 (scFv, His-tagged) scFv: QVQLLESGGGLVQPGRSLRLSCAASGFTFDDYAMHWVRQAPGKGLEWVSGISWNSGSIGYADSVKGRFTISRDNAKNSLYLQMNSLRAEDTAVYYCARDLVYYYGMDVWGQGTTVTVSSGGSGGSGGSGGSQSVLTQPPSVSGTPGQGVSISCSGSSSNIGWKTVNWYQQVPGMAPKLLIYSDNQRPSGVPDRFSGSKSATSASLAISGLQSEDEADYYCASWDASVNAPVFGGGTKLTVL", "Recorded result": 45000}
{"Binder": "46-TC7-VII-E11 (scFv, His-tagged) scFv: QVQLVQSGGGVVQPGRSLRLSCAASGFTFSSYAMHWVRQAPGKGLEWVAVISYDGSNKYYADSVKGRFTISRDNSKNTLYLQMNSLRAEDTAVYYCARDSSGYYYGSDAFDIWGQGTMVTVSSGGSGGSGGSGGSSYELTQPPSVSVALGQTVRITCQGDSLRSYYASWYQQKPGQAPVLVIYGKNNRPSGIPDRFSGSSSGNTASLTITGAQAEDEADYYCNSRDSSGNPWVFGGGTKVTVL", "Recorded result": 1790}
